Molecular target: ESO157 A6 peptide (…)/HLA-A*02:01 complex on T2 cells (human)
Assay: FACS, peptide-pulsed T2 cells
Kindly state MFI for each of the entries shown.
// return a plain number; no unit text

Entry phage clone #148, anti-ESO157/HLA-A*02:01 scFv displayed on phage (scFv, V domains shown) VH: EVQLVQSGAEVKKPGASVKVSCKASGGTFSSYAISWVRQAPGQGLEWMGGIIPIFGTANYAQKFQGRVTITADKSTSTAYMELSSLRSEDTAVYYCARSYWSWTPYDPWGQGTLVTVSS VL: LPVLTQPPSVSVAPGKTARITCGGNNIGSKSVHWYQQKPGQAPVLVIYYDSDRPSGIPERFSGSNSGNTATLTISRVEAGDEADYYCQVWDSSSDHYVFGTGTKVTVLG has what MFI? 17500

Entry phage clone #52, anti-ESO157/HLA-A*02:01 scFv displayed on phage (scFv, V domains shown) VH: QVQLVQSGAEVKKPGASVKVSCKASGYTFTSYGISWVRQAPGQGLEWMGWISAYNGNTNYAQKLQGRVTMTTDTSTSTAYMELRSLRSDDTAVYYCARYSGYYAGDSWGQGTLVTVSS VL: QSVLTQPPSVSGAPGQRVTISCTGSSSNIGAGYDVHWYQQLPGTAPKLLIYGDTNRPSGVPDRISGSKSGTSASLAITGLQAEDEADYYCQSYDSNLYTYVFGTGTKVTVLG has what MFI? 1880

Entry phage clone #66, anti-ESO157/HLA-A*02:01 scFv displayed on phage (scFv, V domains shown) VH: EVQLVESGAEVKRPGASVKVSCKASGYTFTSYGISWVRQAPGQGLEWMGRFIPNLNKGNSAHKFEGRVSFTADKFTNTAYMELRGLKSDDTAVYYCARGDYGSDQWGQGTLVTVSS VL: QSVLTQPPSVSGAPGQRVTISCTGSSSNIGAGYDVHWYQQLPGTAPKLLIYGNSNRPSGVPDRFSGSKSGTSASLAITGLQAEDEADYYCQSYDSSLSGSWVFGGGTKLTVLG has what MFI? 19800

Entry phage clone #116, anti-ESO157/HLA-A*02:01 scFv displayed on phage (scFv, V domains shown) VH: QVQLVQSGPEVKKPGASMKVSCKASGYTFTKYGISWVRQAPGQGLEWMGWISADSGKTSYAQNLQGRVSLTIDTSTATAYMELRSLRSDDTAVYYCARDDDSWGQGTLVTVSS VL: QSVLTQPPSVSAAPGQKVTISCSGSSSNIGNNYVSWYQQLPGTAPKLLIYDNNKRPSGIPDRFSGSKSGTSATLGITGLQTGDEADYYCGTWDSSLSAEVFGTGTKVTVLG has what MFI? 2640
